test_summary: soluble fraction after stress (log2 fold change); higher = more stays soluble; pooled small domains, quantitative proteomics
measurement_context: stress: 50 degC
Recorded soluble fraction (log2) split into classes label 0: < -0.5; label 1: ≥ -0.5 and < -0.05; label 2: ≥ -0.05

input_sequence	class_label
HMPTERLSMRRIRELLRLRFEVGLSTRLIATALGISKGAVGDYLQRAQVAGLGWPLPENLNDAALERRLFP	label 0
HMPDLQKAIDDLLQVVDKRLNTSFESILNEVNSEKEAVAFFLALLEAVRWGFVKASQSDEGIKIEK	label 2
HMSDPHEELMSRIARDLSIPLTRVVAEMNTIISKEFGGHIRPEGAVVILAKRSGVEFSDLLPALRENILK	label 0
HMHIDQVIRERRLALGLTQEELANKIGVSAPAVSKWEKRVSYPDITLLPALARILGTDVNTLLTFS	label 1
HMPDLSAEERNIVEALQKSNDLQVNLIAVKTGMDMGTLSATLFGLEMKGLVKLMAGGTYHLI	label 1
HMKDMKISTKNLLQELAKNYPDQTSFRKNVIETTARAMGYTGKDFYPLLTTDNRVKIGTYDLATFLRSI	label 0
HMVFLPDEIFRLKVIKAGEGPEQGVGYLDDGTMVVIEGARDRIGDELEVRVTSTLQTNAGKMIFTKFE	label 1
HMTKNEFLQGLKEELEGRVTHSAIQENIRYYDDYISQEVLKGSTEEEVTESLGGPRIIARTIVDAAYD	label 2
HMKIETVENPLLERTEISALFDSKSGSLTRKEAIDLISKKARIDSSTVYAIKLSNSSGSTRIIGLFY	label 2
HMGTTAWISTKTANGSVNIRTGPGTGYGVIGWALNGDKLEVLSRGTSWHYVKLVKNGKIGYVSASYVSFTQ	label 1
HMMLVKKMLNGIMMKEITIKELADQYDVSTRTIQLKIKKLGYEWDSKESIYRYVGKESEPLDVDFSTLI	label 0
HMPPNVLSEREQEVLQLAADGMSNKEMGSELYIAPTTVRDHMQSIMRKLQVNSRTAAAVAGLKLGLLD	label 1
HMVEVPNVSNLTLEQAENKLIQQGLQVKLEGQGEKVVAQIPQPGAVVNKKSTVILF	label 2
HMQYTTDEVRERVLSVLNQLLLRWIVREGKDMFNIQANAVEISEGIKGELNTELEKIGLAATGFQIDSV	label 0
HMTKDEIIIQSIIDAAKKLMQQYGLNKTTMEDIAKEAGKGKSTLYHYFKSKEEIFDQVINQEID	label 1
HMNDELMEQIDEWHKAEKHQEIIDALEQIPEAERDFETTGFLARAYNNIEEYAKAADLLESVRE	label 2
HMDGPGAGGRFLAEDLGTGKMTLEALQRHYVTLVYSRTGKYEETARRLEIDRRTVKKYLDEELLAELRET	label 2
HMDIKKHISATLKREMEKRGLNFMEFSTELGIPRTTLQGYLKGTSSPQADSLEELADKLGISPAELVSG	label 2
HMAPLVTLEADGNGAVKLSNLAGHSIREVAGALGGAGLSLIPVGSGTSWKQNPAPGTVLHSGDTVTVYF	label 2
HMVNTYILNNKEYPIEIIRKNNKNTYLRVKEGKIIVTTNYLTSSFTINKLIKDNTSFINKALLKEN	label 0
HMSNMESLIGREATVIEMIPAEDVGRVKIDGDEWQAVLAREDDNEPRRDIQVGEKVIIVSYDSIILTVKTK	label 2
HMGVTDLFAVLGFPRSPWLDAEELKQRHHALMADEASANSSPTILNEARRTLQNPALRIRHFLALEFPDH	label 1
HMLSDHGLNDRQIMVIAGLMNGGTVTVRSIESQYGVSLNTARADVKMLVDAGLLTETGREVNMKVYSWSGK	label 0
HMGGGFLVPSLVGKSLEEARSLSELRGFKLEVGDYVISSEYPAGRVTRQNPANGAKGQEGDVIKVEVSS	label 2
HMGKTKFTEMSALELKAYAELNNNSMHWVYRMLYIGGGDVGFRKGMKELGYSGKFIWMTLERLKKS	label 0
HMYVADVVGMGIKDALYILENQGLRVVFTGKGVVKNQSIAVGEKIIKGEKIVLML	label 0
HMKYKKYKLLKDLPTFKAGQLAYISKTGNLIAGTPENQKTTETGLIIMIYHETTLKKFPNILTEWFEEIE	label 0
HMQATDEEIENFTSSAITAYKLTKEEGYIISMRDMKPIMEIVKTEYPMANGKVVSKVMNNYING	label 1
HMGIFAQTTKWRDIYTVKKKDTIFGIANKYGLSLPELMEANPEMKQEGYMLQKGTTLFIPFASD	label 1
HMRRTEKEIEQDVMRAIATIISEKGISSVTIKEVSNLSKTDVIVLERRFKNDEGLIKAYTSQ	label 1
HMKSAYADVAIAKVQDYVNVRAENNEDSEVLGKLYNNSAATVLETTDDGWYKISSGSVTGYVKSEYVVVG	label 2
HMTMIIQLDKNITQEQRQFLVEELNRLSISPNFVSTQFTNYIVGIPKKEFDIRLIGNLPGIADIHFV	label 1
